Provide the reported protein stability index of each item.
B1: TLE6 (parent)
chain: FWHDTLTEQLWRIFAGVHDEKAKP

Variants of: B1
Measurement Protocol: protein stability index of a GFP-peptide fusion (GPS, HEK-293T) (PSI 1-6); higher = more stable;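 also: lentivirally expressed fusions sorted by FACS into six bins by GFP to DsRed ratio, PSI derived from sequencing read proportions per bin multiplied by bin number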
Protocol Conditions: c terminus: a fixed tail appended
One number for each entry.

Sample answers from the record:
FWHDTLTEQLWRIFAGVHDEKADP [K23D]
1.49
FWHDTLTHQLWRIFAGVHDEKAKP [E8H]
2.52
FWHDTLTIQLWRIFAGVHDEKAKP [E8I]
1.66

Task: I have this variant here, FWHDTLTEQLWRIPAGVHDEKAKP [F14P] , and I need its recorded protein stability index.
Result: 1.98
